# System: ABUTH, Velvetleaf, Abutilon theophrasti, Medic.
# protocol: Postemergence herbicidal evaluation
# Type: in vivo
# measurement conditions: 0.1000 kg/ha
What Herbicide rating ABUTH was measured for each of the following?

stdin: What measured Herbicide rating ABUTH goes with CCCS/C(=C1/C=NN(CC)C1=O)c1ccc2c(c1C)/C(=N/OC)CCS2(=O)=O ?
stdout: 0.0

stdin: What measured Herbicide rating ABUTH goes with COc1ccc(OC(=C2C=NN(C)C2=O)c2ccc3c(c2C)C(C)(C)CS3(=O)=O)cc1 ?
stdout: 7.0

stdin: What measured Herbicide rating ABUTH goes with Cc1c(C(=C2C=NN(C)C2=O)N(C)C)ccc2c1C(C)(C)CS2(=O)=O ?
stdout: 0.0

stdin: What measured Herbicide rating ABUTH goes with CCCS/C(=C1\C=NN(CC)C1=O)c1ccc2c(c1C)/C(=N/OC)CCS2(=O)=O ?
stdout: 1.0

* * *

# Tested on: AMBEL, Ragweed, Ambrosia artemisifolia, L.
# protocol: Postemergence herbicidal evaluation
# Type: in vivo
# measurement conditions: 0.0500 kg/ha
observed property: Herbicide rating AMBEL
Returns: the value as a bare number; no unit string appended.

stdin: What measured Herbicide rating AMBEL goes with CCCS/C(=C1\C=NN(CC)C1=O)c1ccc2c(c1C)/C(=N/OC)CCS2(=O)=O [Example 8a] ?
stdout: 2.0

stdin: What measured Herbicide rating AMBEL goes with CCCS/C(=C1/C=NN(CC)C1=O)c1ccc2c(c1C)/C(=N/OC)CCS2(=O)=O [Example 8b] ?
stdout: 0.0

stdin: What measured Herbicide rating AMBEL goes with Cc1c(C(=C2C=NN(C)C2=O)N(C)C)ccc2c1C(C)(C)CS2(=O)=O [Example 2] ?
stdout: 0.0

stdin: What measured Herbicide rating AMBEL goes with COc1ccc(OC(=C2C=NN(C)C2=O)c2ccc3c(c2C)C(C)(C)CS3(=O)=O)cc1 [Example 3] ?
stdout: 7.0

* * *

What Herbicide rating CHEAL was measured for each of the following?
# Test system: CHEAL, Lambsquarters, Chenopodium album, L.
# protocol: Postemergence herbicidal evaluation
# Type: in vivo
# measurement conditions: 0.0500 kg/ha
Returns: the value as a bare number; no unit string appended.

stdin: What measured Herbicide rating CHEAL goes with CCCS/C(=C1\C=NN(CC)C1=O)c1ccc2c(c1C)/C(=N/OC)CCS2(=O)=O ?
stdout: 7.0

stdin: What measured Herbicide rating CHEAL goes with Cc1c(C(=C2C=NN(C)C2=O)N(C)C)ccc2c1C(C)(C)CS2(=O)=O ?
stdout: 0.0

stdin: What measured Herbicide rating CHEAL goes with COc1ccc(OC(=C2C=NN(C)C2=O)c2ccc3c(c2C)C(C)(C)CS3(=O)=O)cc1 ?
stdout: 8.0

stdin: What measured Herbicide rating CHEAL goes with CCCS/C(=C1/C=NN(CC)C1=O)c1ccc2c(c1C)/C(=N/OC)CCS2(=O)=O ?
stdout: 7.0

Values were extracted from patent US6465395B2.
